# System Under Test: monoacylglycerol lipase (MGL) (Rattus norvegicus)
# Sequence (Q8R431 whole entry): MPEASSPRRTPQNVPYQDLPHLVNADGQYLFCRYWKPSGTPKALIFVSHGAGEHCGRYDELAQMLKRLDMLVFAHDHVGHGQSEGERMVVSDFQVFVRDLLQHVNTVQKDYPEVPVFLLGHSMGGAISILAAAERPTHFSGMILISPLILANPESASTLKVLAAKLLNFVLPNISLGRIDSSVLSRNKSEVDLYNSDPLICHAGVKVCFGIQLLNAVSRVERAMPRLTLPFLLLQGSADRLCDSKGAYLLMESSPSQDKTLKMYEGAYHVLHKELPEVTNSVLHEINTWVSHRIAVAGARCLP
Endpoint: IC50 (µM)
Field: numeric (µM). Do not append units.

Query string: Recorded IC50 of OO [hydrogen peroxide] , please.
Result string: 8.2

Data provenance is paper PMC4459529.
